Assignment: determine reported growth for the given compounds.
System: MDA-MB-231 breast
Test: NCI-60 one-dose screen, 48 h (100 = growth as untreated, 0 = no growth, -100 = all killed)
Conditions: 10 µM unless noted
This is part of a sample that, as a whole, favours compounds with a hit. Of some 83,000 tested, about 20% had one in any assay.
Express the result in % but write the number alone.

Which value of growth has been reported for Cc1ccccc1NC1CC(=O)N(c2ccc(Cl)cc2Cl)C1=O (stereo not drawn) in the records?
104

Which value of growth has been reported for "COc1cc(CNC(=O)/C=C/c2ccccc2)ccc1OCC(=O)NO" in the records?
98.4

Which value of growth has been reported for CCOC(=O)C1=C(C)Nc2nnc(Nc3ccccc3)n2C1c1ccccc1 (stereo not drawn) in the records?
65.7

Which value of growth has been reported for "Cc1ccc(Nc2ncnc3c2c(C)nn3-c2ccc([N+](=O)[O-])cc2)cc1" in the records?
80.8

Which value of growth has been reported for "N#Cc1c(NC(=O)c2ccccc2C(F)(F)F)sc2c1CCC(=O)C2" in the records?
3.09

Which value of growth has been reported for "CN(C)c1ccc(/C=N/Nc2nc(N/N=C/c3ccc(N(C)C)cc3)nc(N3CCOCC3)n2)cc1" in the records?
99.5

Which value of growth has been reported for "NC(=S)N/N=C(/C=C/c1cn(-c2ccccc2)nc1-c1ccc(Cl)cc1)c1cc2ccccc2oc1=O" in the records?
48.9

Which value of growth has been reported for "Cc1nc(-c2cc3ccccc3c(N3CCN(C)CC3)n2)cs1" in the records?
90.3

Which value of growth has been reported for "COc1cc(/C=C/C(=O)c2ccc(NC(=O)COc3cccc4cccnc34)cc2)cc(OC)c1OC" in the records?
73.7

Which value of growth has been reported for "O=C(CCCCCCN1CC(=O)N2[C@@H](c3cc(F)cc(F)c3)c3[nH]c4ccccc4c3C[C@H]2C1=O)NO" in the records?
62

Which value of growth has been reported for "Cc1ccc(/C=C/CC(=O)Nc2ccc(C(=O)Nc3ccc(F)cc3N)nc2)cn1" in the records?
54.7

Which value of growth has been reported for "O=C(c1ccc(O)cc1)[C@@H]1[C@@H]2CCCN2[C@@]2(C(=O)N(C(=O)c3ccc(F)cc3)c3ccccc32)[C@H]1c1ccc(F)cc1" in the records?
82.5

Which value of growth has been reported for "NS(=O)(=O)c1ccc(Nc2nc(N/N=C/c3ccc(F)cc3)nc(Nc3ccccc3)n2)cc1" in the records?
61.8

Values were extracted from PubChem BioAssay (NCI).
